experiment: in vivo; conditions: male, Sprague Dawley, rat, iv, 5 mg/kg;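 note: drug levels in rat plasma quantified by LC/MS/MS after a combined two-compound formulation, quantitation limit 5 ng/mL with lower values set to zero, parameters from noncompartmental analysis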
endpoint: concentration at 10 hr (ng/mL)
Return type: number; implicit unit ng/mL.

Input line: Given the compound [2H]C1([2H])CN(c2ccc(N3C[C@H](CNC(C)=O)OC3=O)cc2F)CC([2H])([2H])O1 , what is its reported concentration at 10 hr?
Output line: 0

---

assay: in vivo; conditions: male, Sprague Dawley, rat, po, 5 mg/kg
endpoint: concentration at 24 hr
Hi, when you answer, please include the unit after the number. Thanks!

Input line: Quick check: concentration at 24 hr of CC(=O)NC[C@H]1CN(c2ccc(N3CCOCC3)c(F)c2)C(=O)O1 ?
Output line: 0 ng/mL
